test: PubChem AID 1714; settings: HEK293-KCC2 + bumetanide/ouabain, thallium flux FluoZin2; at 10 µM;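 also: raw slope of fluorescence over initial fluorescence between 10 and 20 s after thallium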
Some of the results follow. Inconclusive results are not listed. Active and inactive are the calls of the source.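 The calls were made as follows: active = thallium entry rate above the same plate's blocked-transporter control wells by more than 3 SD; inconclusive = the two repeat wells disagree; inactive = the rest.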
Pick one: class 1 = active, class 0 = inactive

// known answers, use as guide
compound	assigned label
O=C(CSc1nnc(-c2cccs2)n1Cc1ccccc1)N1CCc2ccccc2C1	class 1
Cc1c(C(=O)NC(=S)NCc2cccnc2)oc2ccccc12	class 1
O=C(Cc1csc(Nc2nc(=S)[nH]c3ccccc23)n1)NCCCN1CCN(c2cccc(Cl)c2)CC1	class 1
O=C(CNC(=O)c1ccco1)OCC(=O)c1ccccc1	class 0
Cc1ccc(N2C(=O)C(Cc3ccccc3)NC2=S)cc1 (centres undefined)	class 1
COCCNc1nc(-n2nc(C)cc2C)nc2sc3c(c12)CCCC3	class 0
COc1ccc(NC(=O)COC(=O)c2ccc(NS(=O)(=O)/C=C/c3ccccc3)cc2)cc1	class 0
COC(=O)c1cccnc1NC(=S)NC(C)C	class 1

## Task Which outcome was entered for the compound N#Cc1c(-c2ccc(Cl)cc2)c2c([nH]c1=S)CCCC2 in this test?
## Result class 1

## Task Try this compound next: Cc1ccc(-n2ncc3c(Nc4cccc(C(=O)O)c4)ncnc32)cc1
## Result class 0

## Task And for O=C1/C(=C\c2ccsc2)NC(=S)N1c1ccccc1 ?
## Result class 1

###

target: Alpha-2C adrenergic receptor (Homo sapiens) (UniProt P18825); assay: modulators of alpha2C/GIRK thallium flux, primary screen, cell-based, HEK293 alpha2C/GIRK1/2 (AID 624); conditions: thallium flux BTC fluorescence, at 10 µM, actives lie on both sides;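 also: slope of fluorescence ratio to pre-addition baseline per second over 15 to 24 s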
Sequence (P18825 whole entry, looked up): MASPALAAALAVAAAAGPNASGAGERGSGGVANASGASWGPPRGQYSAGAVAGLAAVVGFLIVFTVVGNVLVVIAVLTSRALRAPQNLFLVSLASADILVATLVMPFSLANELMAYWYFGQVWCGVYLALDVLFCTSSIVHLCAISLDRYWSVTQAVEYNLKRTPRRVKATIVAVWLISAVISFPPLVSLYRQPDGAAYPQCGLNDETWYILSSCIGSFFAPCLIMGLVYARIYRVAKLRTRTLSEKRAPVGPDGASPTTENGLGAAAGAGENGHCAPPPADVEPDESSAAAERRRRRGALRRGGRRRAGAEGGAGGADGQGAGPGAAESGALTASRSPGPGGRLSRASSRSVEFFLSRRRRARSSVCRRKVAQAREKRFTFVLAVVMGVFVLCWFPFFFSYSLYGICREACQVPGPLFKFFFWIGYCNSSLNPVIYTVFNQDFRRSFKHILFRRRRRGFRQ
The source made the active and inactive calls.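 How the source made its calls: active means fluorescence slope after compound addition differing from the mean of all screened samples at 99.7% confidence, in either direction; inactive means the rest.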
experimental readout: slope

Below: 3 molecules and their reported slope.
molecule	experimental target	result
CC(=O)Nc1n[nH]c(S(=O)(=O)Cc2ccc(Cl)cc2Cl)n1	Alpha-2C adrenergic receptor (Homo sapiens) (UniProt P18825)	0.00491 (inactive)
Cc1cc(C)n(C(=O)CN2C(=O)CCC2=O)n1	Alpha-2C adrenergic receptor (Homo sapiens) (UniProt P18825)	0.00506 (inactive)
Oc1ccc2c(c1)C1CCCC1(N1CCOCC1)O2 (centres undefined)	Alpha-2C adrenergic receptor (Homo sapiens) (UniProt P18825)	0.005 (inactive)

From here, focus on the item given below.
## Task Requested read-out: slope. Entry: CN1CCN(CC(=O)N2c3ccccc3C(=O)Nc3cccnc32)CC1
## Result 0.00501 (inactive)

###

molecular target: Alpha-2C adrenergic receptor (Homo sapiens) (UniProt P18825); test: modulators of alpha2C/GIRK thallium flux, primary screen, cell-based, HEK293 alpha2C/GIRK1/2 (AID 624); conditions: thallium flux BTC fluorescence, at 10 µM, actives lie on both sides;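 also: slope of fluorescence ratio to pre-addition baseline per second over 15 to 24 s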
Recorded slope, one value per entry.
// print number alone

// below: answered compounds
smiles representation	slope
CCOC(=O)C(NC=O)(NC(C)(C)C)C(=O)OCC	0.00503
OC1(c2cccc(C(F)(F)F)c2)CCN(c2ncnc3c2[nH]c2ccccc23)CC1	0.0037

## Task Entry CN1CCc2c(sc3c2c(=O)n(-c2ccccc2)c2nnc(SCc4ccccc4)n32)C1 has what slope?
## Result 0.00449

###

experiment: DUSP6 inhibitors restoring Erk phosphorylation by chemical complementation, primary imaging in DUSP6-transfected HeLa (AID 609); conditions: HeLa MKP-3 transfected, phospho-Erk imaging KS statistic; measured here: nuclear c-Myc green intensity z-score; at 10 µM; cells stimulated with TPA for 15 min
experimental readout: z-score
I'd appreciate a reply containing only the number, no unit.

molecule	z-score
Cc1c(NS(=O)(=O)c2cccc3nsnc23)c(=O)n(-c2ccccc2)n1C	0.599

## Task I am curious: what z-score value has been reported for CN(C)CCCN1c2ccccc2Sc2ccc(Cl)cc21 ?
## Result 0.553

## Task Now the molecule COc1ccc(NCc2cc3ccccc3[nH]c2=O)cc1
## Result -0.583
